A collection of compounds and their measured %Inh
- Tested on: CDKL1
- study_conditions: concentration: 1 μM, replicates: in singlicate; n = 1;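 further: KINOMEscan kinase panel screen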

- compound: "COc1ccc(-c2coc3ccc(-c4nnc(SCc5ccc(OC)c(C(F)(F)F)c5)o4)cc23)cc1"
  scale_unit: "%"
  %Inh: 11
- compound: "C[C@@H]1CC[C@@H](C(=O)Nc2ccccc2)CN1c1cc(-c2ccc3c(N)n[nH]c3c2)nc(N)n1 [GSK2286062]"
  scale_unit: "%"
  %Inh: 0
- compound: "COc1ccc(CNC(=O)NC2CCN(c3ccnc(Nc4ccc(F)cc4)n3)CC2)cc1 [GSK1379788]"
  scale_unit: "%"
  %Inh: 9
- compound: "O=C(Nc1cccc(-c2nn3ccccc3c2-c2ccnc(Nc3cccc(C(F)(F)F)c3)n2)c1)c1c(F)cccc1F [GSK292658]"
  scale_unit: "%"
  %Inh: 0
- compound: "Cl.c1ccc(-c2ccc3c(Nc4ccc5[nH]ncc5c4)ccnc3c2)nc1 [GW440137]"
  scale_unit: "%"
  %Inh: 7
- compound: "CN1CCN(CCCNc2nccc(-c3c(-c4ccc(F)cc4)nn4cc(C(F)(F)F)ccc34)n2)CC1 [GW621581]"
  scale_unit: "%"
  %Inh: 0
- compound: "COc1ccc(Nc2nccc(NCCNC(=O)c3cc4ccccc4s3)n2)cc1 [GSK1379896]"
  scale_unit: "%"
  %Inh: 0
- compound: "CNC(=O)c1ccccc1Nc1nc(Nc2ccc(N3CCOCC3)cc2)ncc1Cl.Cl [GSK1576028]"
  scale_unit: "%"
  %Inh: 36

###

- Test system: NEK10
- study_conditions: concentration: 1 μM, replicates: in singlicate; n = 1

- compound: "Cc1cccc(Nc2nc(N[C@H]3CCNC3)ncc2C(N)=O)c1.Cl"
  %Inh / %: 56
- compound: "COc1ccc(Nc2nccc(N3CCC(NC(=O)Nc4cccc(OC)c4)C3)n2)cc1 (stereo not shown)"
  %Inh / %: 0
- compound: "CNC(=O)c1ccccc1Nc1nc(Nc2ccc(N3CCOCC3)cc2)ncc1Cl.Cl"
  %Inh / %: 24
- compound: "Cc1ccc(S(=O)(=O)Nc2ccc(Nc3nccc(Nc4cccc5[nH]ncc45)n3)cc2)cc1"
  %Inh / %: 3

###

- Tested on: MYLK
- study_conditions: concentration: 1 μM, replicates: in singlicate; n = 1
A collection of compounds and their measured %Inh
reported_metric: %Inh (%)

- compound: "Nc1ncc(-c2cccnc2)c2scc(-c3ccc4c(c3)CCN4C(=O)Cc3ccccc3)c12"
  assayed_target: "MYLK"
  reading: 33
- compound: "c1ccc(-c2cnc3nccnn23)cc1"
  assayed_target: "MYLK"
  reading: 0
- compound: "CCc1ccc(-c2ccc3c(c2)-c2c(cnn2C)S(=O)(=O)N3C)cc1"
  assayed_target: "MYLK"
  reading: 0
- compound: "Cc1occc1-c1ncc(OC[C@@H](N)Cc2c[nH]c3ccccc23)cc1-c1ccc2[nH]nc(C)c2c1.O=C(O)C(F)(F)F"
  assayed_target: "MYLK"
  reading: 29
- compound: "COc1cccc(C2=C(Nc3ccc(Cl)c(C(=O)O)c3)C(=O)NC2=O)c1"
  assayed_target: "MYLK"
  reading: 100
- compound: "O=c1[nH]cc(-c2ccc(N3CCOCC3)cc2)c2sc(-c3cn[nH]c3)cc12"
  assayed_target: "MYLK"
  reading: 18
- compound: "Cn1cc(-c2ccc3c(c2)CCN3C(=O)Cc2cccc(F)c2)c2c(N)ncnc21"
  assayed_target: "MYLK"
  reading: 18
- compound: "Cc1cccc(Nc2nc(N[C@H]3CCNC3)ncc2C(N)=O)c1.Cl"
  assayed_target: "MYLK"
  reading: 16
- compound: "CCn1c(-c2nonc2N)nc2c(C#CC(C)(C)O)nc(OC[C@H](N)c3ccccc3)cc21"
  assayed_target: "MYLK"
  reading: 12
- compound: "O=C(Nc1cccc(Oc2ccc3nc(NC(=O)C4CC4)cn3n2)c1)c1ccccc1C(F)(F)F"
  assayed_target: "MYLK"
  reading: 10
- compound: "CN1CCN(Cc2cccc(-c3ccc4c(Nc5ccc(Oc6ccccc6)cc5)ccnc4c3)c2)CC1"
  assayed_target: "MYLK"
  reading: 13
- compound: "Cl.Cl.NCC(NCc1ccc(-c2ccnc3[nH]ccc23)s1)c1ccccc1 (centres unmarked)"
  assayed_target: "MYLK"
  reading: 59
- compound: "COc1ccc(-c2coc3ccc(-c4nnc(SCc5ccc(OC)c(C(F)(F)F)c5)o4)cc23)cc1"
  assayed_target: "MYLK"
  reading: 15
- compound: "COc1cc(Nc2nccc(-c3c(-c4cccc(NC(=O)c5c(F)cccc5F)c4)nn4ccccc34)n2)cc(OC)c1OC"
  assayed_target: "MYLK"
  reading: 8
- compound: "Cl.c1ccc(-c2ccc3c(Nc4ccc5[nH]ncc5c4)ccnc3c2)nc1"
  assayed_target: "MYLK"
  reading: 26
- compound: "Cc1ccc(C(=O)Nc2ccc(Nc3ccnc4cc(-c5nccs5)ccc34)cc2O)cc1.Cl"
  assayed_target: "MYLK"
  reading: 0
- compound: "CN(C)Cc1ccc(-c2ccc3c(Nc4ccc(Oc5ccccn5)cc4)ccnc3c2)o1"
  assayed_target: "MYLK"
  reading: 4
